# Test system: LOX IMVI
# Measurement Notes: NCI tumour cell line growth inhibition, 48 h
Calls of active or inactive are those of the source. Rule as the data show it: active = GI50 up to about 1.1 µM and inactive = higher.
Please provide measured GI50 for the entries that follow.

Fill: GI50 (LOX IMVI) for this molecule `CCOC(=O)c1ccc(NCC#CCN2CCCCC2)cc1`
> 100 µM (inactive)

Report GI50 from LOX IMVI testing of `O=S(=O)(O)c1cc(O)c(/N=N\C2S(=O)(=O)OCCOS2(=O)=O)c2ccccc12`
61.9 µM (inactive)

// fetch GI50; item: `O=C1CCCC2=C1CC1=C(CCCC1=O)N2c1cccc([N+](=O)[O-])c1` ; system: LOX IMVI
> 100 µM (inactive)

Please report GI50 with LOX IMVI for item `N#C/C(C(=S)NCc1ccccc1)=C(/N)N1CCCC1` .
> 100 µM (inactive)

Give the observed GI50 of C=C1CC(OC)(C(OC)C(=O)N[C@H]2OCO[C@H]3C2O[C@H](C[C@@H](COC)OC)C(C)(C)C3OC)O[C@H](C)[C@@H]1C (stereo partly specified) for LOX IMVI.
0.617 µM (active)

Report value: GI50, system: LOX IMVI, molecule: COC1(OC)C=CC2C1C1C=CC2C1(OC)OC (stereo unspecified)
> 100 µM (inactive)

Write GI50 of `CCN(CC)CCN1c2ccccc2Sc2ccc3ccccc3c21` ; system used: LOX IMVI
7.52 µM (inactive)

GET GI50 where system = LOX IMVI and item = `COC(=O)c1cc(O)nc(O)n1`
> 100 µM (inactive)

Please look at `C[N+](C)(C)/C=N\c1cccc2c1CCCC2` and tell me its recorded GI50 on LOX IMVI.
55.3 µM (inactive)

Report measured GI50 on LOX IMVI; entry: C=CCCCCCCCC(O)C1C[C@H](O)C(CCCCC)O1 (stereo partly specified)
19.6 µM (inactive)

Quote LOX IMVI GI50 for entry `Cn1cccc1-c1ccc(-c2ccc(CO)[se]2)[se]1` .
19.1 µM (inactive)

Source listed as ChEMBL document CHEMBL1201862.
